measurementDescription: soluble on expression in E. coli; label from the status in PepcDB or PDB records
assayReadout: soluble on expression in E. coli

{"inputSequence": "MPGDSMCQAMAGNERHMLTSVKTGTYTMPVLHNRVSNEELKARMLAETEPRTTVSFYKYFTIDDPKAFRDRLYIQLEQYKVFGRIYIAAEGINAQISVPNNQFDAFKTGLFSAHPALDQIRLNIALEDDGKSFWVLRMKVRERIVADGIDDPTFNPANVGQYLKADRVNAMADDPDTVFVDMRNHYEYEVGHFQNALEVPSDTFREQLPMAVDMLDDIRDKNIVMYCTGGIRCEKASAYMLHHGFKNVYHVEGGIIEYARQAKAQGLPLKFIGKNFVFDERMGERISDDVIAHCHQCGASCDSHTNCRNEGCHLLFIQCPSCAAKYEGCCSTQCQDEMKLPLEEQRAIRSGRENGMKIFNKSKGLLQSTLHIPAPAAKDNAELEHHHHHH", "assayReadout": "soluble on expression in E. coli", "dataValue": "not soluble"}
{"inputSequence": "MDDHNALLAERHTIFQSSLMTALLDGIYDGEISIGELLGHGNFGIGTFDALDGEMVILDGVCYQLRGDGSASEAALTQRSPFAIATNFVPRLKARVPRGMHRSELSDFITSLLPSENYMYAVRISGMFSSVSVRTVTKQERPYRPMTQATGDDAELEFTNVSGVVAGFRTPIYEKGIGVPGCHVHFIDTDRTSGGHVLDFTMSEGTIEVCPGTDLQLRLPLTQDFSKASLAPDDLDAQIHATEVKG", "assayReadout": "soluble on expression in E. coli", "dataValue": "not soluble"}
